- System: LXRa homodimer (NR concentration 270 nM)
- Assay text: PBM binding z-score (relative to random genomic background probes); higher = stronger binding; sequences stand for … in GC…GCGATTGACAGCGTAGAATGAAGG
Each entry falls into one class according to its PBM binding z-score; the ranges are bin A: < -0.2; bin B: ≥ -0.2 and < 0.2; bin C: ≥ 0.2

Ask: Class? Entry: "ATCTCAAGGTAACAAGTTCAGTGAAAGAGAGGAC"
Result: bin C

Ask: Class? Entry: "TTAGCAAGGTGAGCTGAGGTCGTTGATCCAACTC"
Result: bin A

Ask: Class? Entry: "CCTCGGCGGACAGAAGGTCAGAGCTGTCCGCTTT"
Result: bin B

Ask: Class? Entry: "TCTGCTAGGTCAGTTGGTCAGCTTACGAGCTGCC"
Result: bin A

Ask: Class? Entry: "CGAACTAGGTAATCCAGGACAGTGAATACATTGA"
Result: bin B

Ask: Class? Entry: "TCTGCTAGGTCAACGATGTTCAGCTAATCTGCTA"
Result: bin A

Ask: Class? Entry: "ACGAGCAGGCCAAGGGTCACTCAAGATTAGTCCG"
Result: bin C

Ask: Class? Entry: "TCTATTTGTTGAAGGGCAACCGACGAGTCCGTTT"
Result: bin C

Ask: Class? Entry: "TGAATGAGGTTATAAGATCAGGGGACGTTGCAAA"
Result: bin B

Ask: Class? Entry: "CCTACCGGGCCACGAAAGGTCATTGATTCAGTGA"
Result: bin C

Ask: Class? Entry: "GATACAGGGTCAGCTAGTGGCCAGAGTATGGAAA"
Result: bin A

Ask: Class? Entry: "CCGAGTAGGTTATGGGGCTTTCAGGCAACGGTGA"
Result: bin A

Ask: Class? Entry: "CGTCCAAGGTCAATGCTAGGTGAGTGAAAGCATT"
Result: bin C

----------
What PBM binding z-score was measured for each of the following?
- Test system: VDR homodimer (NR concentration 270 nM)
- Assay text: PBM binding z-score (relative to random genomic background probes); higher = stronger binding; sequences stand for … in GC…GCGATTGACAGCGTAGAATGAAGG
I only need the number, thanks.

Ask: Tell me measured PBM binding z-score for "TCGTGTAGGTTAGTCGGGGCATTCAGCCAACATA" please.
Result: 1.28

Ask: Tell me measured PBM binding z-score for "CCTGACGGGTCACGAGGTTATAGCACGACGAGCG" please.
Result: 1.87

Ask: Tell me measured PBM binding z-score for "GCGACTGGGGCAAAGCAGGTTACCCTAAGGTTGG" please.
Result: -0.641

Ask: Tell me measured PBM binding z-score for "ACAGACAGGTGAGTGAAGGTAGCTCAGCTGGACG" please.
Result: -0.688

Ask: Tell me measured PBM binding z-score for "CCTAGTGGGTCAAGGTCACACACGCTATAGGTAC" please.
Result: 3.44

Ask: Tell me measured PBM binding z-score for "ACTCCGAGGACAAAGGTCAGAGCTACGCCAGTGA" please.
Result: 1.67

Ask: Tell me measured PBM binding z-score for "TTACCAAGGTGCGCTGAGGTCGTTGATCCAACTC" please.
Result: 3.64

Ask: Tell me measured PBM binding z-score for "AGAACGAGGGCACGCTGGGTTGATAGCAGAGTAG" please.
Result: 2.08

Ask: Tell me measured PBM binding z-score for "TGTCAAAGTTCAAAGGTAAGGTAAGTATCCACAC" please.
Result: 4.14

Ask: Tell me measured PBM binding z-score for "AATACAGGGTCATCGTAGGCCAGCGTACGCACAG" please.
Result: 3.03

Ask: Tell me measured PBM binding z-score for "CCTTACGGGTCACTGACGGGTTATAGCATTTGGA" please.
Result: 0.822

Ask: Tell me measured PBM binding z-score for "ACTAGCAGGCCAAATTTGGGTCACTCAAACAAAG" please.
Result: -0.0164

Ask: Tell me measured PBM binding z-score for "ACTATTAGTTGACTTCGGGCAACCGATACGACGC" please.
Result: 0.371

Ask: Tell me measured PBM binding z-score for "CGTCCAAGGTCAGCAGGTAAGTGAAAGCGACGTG" please.
Result: 0.856

Ask: Tell me measured PBM binding z-score for "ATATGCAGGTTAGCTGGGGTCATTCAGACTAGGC" please.
Result: 4.17

Ask: Tell me measured PBM binding z-score for "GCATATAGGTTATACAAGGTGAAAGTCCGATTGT" please.
Result: 0.435

Ask: Tell me measured PBM binding z-score for "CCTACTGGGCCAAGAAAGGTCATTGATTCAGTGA" please.
Result: 2.23

Ask: Tell me measured PBM binding z-score for "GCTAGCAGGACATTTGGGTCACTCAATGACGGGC" please.
Result: 0.846

Ask: Tell me measured PBM binding z-score for "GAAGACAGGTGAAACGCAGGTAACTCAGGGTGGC" please.
Result: -0.373

Ask: Tell me measured PBM binding z-score for "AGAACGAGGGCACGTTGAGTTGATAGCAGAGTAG" please.
Result: 2.13

Ask: Tell me measured PBM binding z-score for "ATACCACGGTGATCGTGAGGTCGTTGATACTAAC" please.
Result: 2.44

Ask: Tell me measured PBM binding z-score for "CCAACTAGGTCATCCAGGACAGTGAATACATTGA" please.
Result: 2.63

Ask: Tell me measured PBM binding z-score for "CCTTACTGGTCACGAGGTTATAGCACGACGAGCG" please.
Result: 1.13

Ask: Tell me measured PBM binding z-score for "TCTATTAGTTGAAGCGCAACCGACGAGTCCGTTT" please.
Result: 0.818

Ask: Tell me measured PBM binding z-score for "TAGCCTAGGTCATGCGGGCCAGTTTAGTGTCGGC" please.
Result: 0.95

Ask: Tell me measured PBM binding z-score for "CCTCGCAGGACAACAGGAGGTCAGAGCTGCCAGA" please.
Result: 1.05

Ask: Tell me measured PBM binding z-score for "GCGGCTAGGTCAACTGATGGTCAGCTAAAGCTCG" please.
Result: -0.00796

Ask: Tell me measured PBM binding z-score for "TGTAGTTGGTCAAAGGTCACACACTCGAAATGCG" please.
Result: 2.51

Ask: Tell me measured PBM binding z-score for "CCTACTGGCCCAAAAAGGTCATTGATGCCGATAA" please.
Result: 2.65

Ask: Tell me measured PBM binding z-score for "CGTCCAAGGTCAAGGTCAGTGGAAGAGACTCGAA" please.
Result: 3.15

Ask: Tell me measured PBM binding z-score for "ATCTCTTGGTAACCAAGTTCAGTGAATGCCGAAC" please.
Result: 2.57

Ask: Tell me measured PBM binding z-score for "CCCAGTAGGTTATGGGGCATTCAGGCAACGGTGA" please.
Result: 0.0729

Ask: Tell me measured PBM binding z-score for "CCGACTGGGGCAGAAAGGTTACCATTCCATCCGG" please.
Result: -0.34

Ask: Tell me measured PBM binding z-score for "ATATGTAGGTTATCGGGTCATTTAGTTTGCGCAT" please.
Result: 2.85

Ask: Tell me measured PBM binding z-score for "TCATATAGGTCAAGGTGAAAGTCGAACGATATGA" please.
Result: 0.356

Ask: Tell me measured PBM binding z-score for "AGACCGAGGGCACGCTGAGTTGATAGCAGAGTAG" please.
Result: 1.75

Ask: Tell me measured PBM binding z-score for "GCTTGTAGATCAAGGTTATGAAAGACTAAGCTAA" please.
Result: -0.036

Ask: Tell me measured PBM binding z-score for "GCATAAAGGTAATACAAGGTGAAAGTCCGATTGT" please.
Result: 0.291

Ask: Tell me measured PBM binding z-score for "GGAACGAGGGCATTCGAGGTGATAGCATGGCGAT" please.
Result: 1.77

Ask: Tell me measured PBM binding z-score for "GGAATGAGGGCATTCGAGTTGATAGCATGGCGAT" please.
Result: 3.8

Ask: Tell me measured PBM binding z-score for "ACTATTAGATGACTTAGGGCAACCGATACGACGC" please.
Result: 0.377

Ask: Tell me measured PBM binding z-score for "TCATATAGGTAATACAGGTGAAACTCGGCATCTA" please.
Result: 0.169

Ask: Tell me measured PBM binding z-score for "ATCTGTAGGTAACAAGTTCAGTGAAAGAGAGGAC" please.
Result: 2.46

Ask: Tell me measured PBM binding z-score for "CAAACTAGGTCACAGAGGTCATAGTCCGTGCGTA" please.
Result: 7.02

Ask: Tell me measured PBM binding z-score for "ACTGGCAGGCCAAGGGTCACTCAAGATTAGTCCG" please.
Result: 1.11

Ask: Tell me measured PBM binding z-score for "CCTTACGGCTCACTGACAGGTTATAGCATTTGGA" please.
Result: -0.0205
